# Test system: Mycobacterium bovis (rBCG-lux)
# assay protocol: microbe, parasite or virus in culture
# Format: cell-based, Mycobacterium bovis bacille Calmette Guerin
# condition info: Mycobacterium tuberculosis variant bovis, 72 h; read-out: % of control, measured in RLUs
measured attribute: activity at 0.15 µg/mL (%)

[
  {
    "molecule": "NCC[C@H](O)C(=O)N[C@@H]1C[C@H](N)[C@@H](O[C@H]2O[C@H](CN)[C@@H](O)[C@H](O)[C@H]2O)[C@H](O)[C@H]1O[C@H]1O[C@H](CO)[C@@H](O)[C@H](N)[C@H]1O",
    "number": 52.9
  },
  {
    "molecule": "NNC(=O)c1ccncc1 [Isoniazid, reference compound]",
    "number": 158
  },
  {
    "molecule": "[H]/N=C(/N)N[C@H]1[C@H](O)[C@@H](O)[C@H](O[C@@H]2O[C@@H](C)[C@](O)(C=O)[C@H]2O[C@@H]2O[C@@H](CO)[C@H](O)[C@@H](O)[C@@H]2NC)[C@@H](N/C(N)=N\\[H])[C@@H]1O",
    "number": 63.5
  },
  {
    "molecule": "O=[N+]([O-])c1cn2c(n1)OC[C@@H](OCc1ccc(OC(F)(F)F)cc1)C2",
    "number": 29.4
  },
  {
    "molecule": "CC[C@@H](CO)NCCN[C@@H](CC)CO",
    "number": 179
  }
]

Taken from patent US6087358A.
